// data source = the supplement of paper PMC10065799

Let's look at some sequences and their measured phosphorylation enrichment.
Target Under Test: Fyn (UniProt P06241)
Sequence (P06241 whole entry, looked up): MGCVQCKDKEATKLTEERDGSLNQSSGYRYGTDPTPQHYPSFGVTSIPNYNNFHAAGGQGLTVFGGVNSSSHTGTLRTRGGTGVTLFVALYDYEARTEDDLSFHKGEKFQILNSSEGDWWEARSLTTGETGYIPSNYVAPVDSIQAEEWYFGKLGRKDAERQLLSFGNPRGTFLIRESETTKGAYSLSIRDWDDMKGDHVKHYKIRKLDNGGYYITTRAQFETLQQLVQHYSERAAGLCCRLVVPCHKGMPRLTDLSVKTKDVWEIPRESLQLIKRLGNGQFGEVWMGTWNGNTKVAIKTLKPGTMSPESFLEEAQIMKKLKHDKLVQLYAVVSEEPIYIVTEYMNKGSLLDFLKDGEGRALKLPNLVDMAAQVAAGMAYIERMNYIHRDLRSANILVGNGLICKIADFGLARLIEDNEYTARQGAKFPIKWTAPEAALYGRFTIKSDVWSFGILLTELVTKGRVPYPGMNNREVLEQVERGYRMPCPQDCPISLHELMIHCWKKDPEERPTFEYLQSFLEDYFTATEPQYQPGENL
Procedure Text: phosphorylation enrichment, bacterial display (enrichment ratio); higher = better substrate or ligand; peptides without Tyr show the background;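 note: 11-residue human phosphosite peptides and single-mutation variants displayed on the E. coli surface, counted by deep sequencing, each peptide's frequency after selection divided by its frequency in the unselected input library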;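 note: frequency after pTyr selection over input frequency; kinase dosed for 20-30% of maximal phosphorylation in three min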

Construct Sequence | phosphorylation enrichment
SVTCTYSPALN [TP53_Y126] | 0.489
EVTLTYATGTK [NFKB1_Y485] | 0.496
NHYKICNLCAE [PTEN_Y68_Y68C] | 0.4
HNLDFYKKTTN [FGFR3_Y648_YF] | 0.916
APQFTYTQGGQ [FLNA_Y1763_A1764T_YF] | 0.5
KPGLVYNKVNP [SPRED3_Y72] | 0.424
